- SYSTEM: CYP1A2 (Homo sapiens, UniProt P05177)
- Sequence (P05177 whole entry): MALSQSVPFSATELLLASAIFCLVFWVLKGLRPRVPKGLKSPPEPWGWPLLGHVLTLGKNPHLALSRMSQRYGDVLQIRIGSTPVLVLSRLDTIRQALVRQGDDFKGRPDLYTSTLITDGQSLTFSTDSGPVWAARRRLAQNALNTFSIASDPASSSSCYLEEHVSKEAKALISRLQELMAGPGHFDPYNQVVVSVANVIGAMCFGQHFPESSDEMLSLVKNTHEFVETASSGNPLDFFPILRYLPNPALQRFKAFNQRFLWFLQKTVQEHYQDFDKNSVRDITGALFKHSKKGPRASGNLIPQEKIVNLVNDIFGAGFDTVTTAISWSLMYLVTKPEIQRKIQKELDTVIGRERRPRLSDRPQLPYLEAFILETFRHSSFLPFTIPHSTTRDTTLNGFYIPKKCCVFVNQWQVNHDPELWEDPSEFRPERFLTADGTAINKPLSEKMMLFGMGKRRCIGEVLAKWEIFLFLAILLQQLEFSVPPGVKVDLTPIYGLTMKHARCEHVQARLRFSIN
- PROTOCOL_NOTES: Inhibition of CYP1A2 (unknown origin)-mediated phenacetin metabolite conversion at 10 uM after 20 mins relative to control
- Format: ADME
- MEASUREMENT_PARAMETERS: probe phenacetin
MEASUREMENT_KIND: inhibition at 20 min, 10 µM (%)

(I) O=C(Nc1cc(NS(=O)(=O)c2cccs2)cc(-c2csc(=O)[nH]2)c1)c1cccs1
(II) O=c1[nH]c(-c2cccc(NS(=O)(=O)c3cccs3)c2)cs1
Task: Between I and II , whose measured inhibition at 20 min, 10 µM reads higher? Give the label of your selection.
Output: I
(I: 29%, II: 16%)
